Tested on: C. ochracea
Format: biochemical
MEASUREMENT CONTEXT: strain ATCC 27872; β-naphthylamine liberated after 60 minutes, 37° C.
Protocol: The enzyme activity was measured by the chromogenic properties of N-CBz-glycyl-glycyl-L-arginine-β-naphthylamide which upon hydrolysis gives a visible color. The aminopeptidase activities listed in the table reflect the nanomoles of β-naphthylamine liberated after 60 minutes under the conditions described below. […]
Peptide text beside a SMILES is read from it. * marks the point of attachment. βNA = c1ccc2cc(N*)ccc2c1
TEST READOUT: Aminopeptidase activity (nmol)
Supply the numeric figure in nmol, leaving out any unit text.

Form field Aminopeptidase activity, entry Cl.N=C(N)NCCC[C@H](NC(=O)CNC(=O)CNC(=O)OCc1ccccc1)C(=O)Nc1ccc2ccccc2c1 [N-CBz-Gly-Gly-Arg] : 8

Lab note: measured Aminopeptidase activity of NC(=O)[C@@H](N)CCC(=O)O [α-Glu, α -glutamine] was 5

Looking up C[C@H](N)C(=O)N[C@@H](C)C(=O)N[C@@H](Cc1ccccc1)C(=O)Nc1ccc2ccccc2c1 [Ala-Ala-Phe] (H-Ala-Ala-Phe-βNA) , I see its Aminopeptidase activity listed as 82

Per the record, CC(C)C[C@H](NC(=O)[C@@H]1CCCN1C(=O)CN)C(=O)Nc1ccc2ccccc2c1 [Gly-Pro-Leu] (H-Gly-Pro-Leu-βNA) has Aminopeptidase activity of 41

Reported Aminopeptidase activity ( CC(C)C[C@H](N)C(=O)NCC(=O)O [Leu-Gly, Leucyl-glycine] (H-Leu-Gly-OH) ) = 9

compound CSCCC(N)C(=O)Nc1ccc2ccccc2c1 (racemic) , Aminopeptidase activity observed: 118
